Every entry's value here was drawn from paper PMC11881906.

experiment: Plasma pharmacokinetic study; format: in vivo, CD-1 mice; details: male, CD-1, mouse, plasma; SC 40 mg/kg, 1 hr

# COMPOUND, concentration at 1 h / ng/mL
records = [
    ("CC(C)=CCOc1cc(OCCCNC(=N)N)cc2oc3cc(OCCCNC(=N)N)ccc3c(=O)c12 [XT17]", 8680),
]

----------
test: Plasma pharmacokinetic study; format: in vivo, CD-1 mice; conditions: male, CD-1, mouse, plasma; SC 40 mg/kg, 2 hr

# SMILES CODE, RESULT UNITS, concentration at 2 h
rows = [
    ("CC(C)=CCOc1cc(OCCCNC(=N)N)cc2oc3cc(OCCCNC(=N)N)ccc3c(=O)c12", "ng/mL", 4620),
]

----------
Reported MIC90 values, K. pneumonia ATCC 14581.

# SMILES CODE, MIC90
data = [
    ("CC(C)=CCOc1cc(OCCNC(=N)N)cc2oc3cc(OCCNC(=N)N)ccc3c(=O)c12", "50 µg/mL"),
    ("CC(C)=CCOc1cc(OCCCNC(=N)N)cc2oc3cc(OCCCNC(=N)N)ccc3c(=O)c12", "12.5 µg/mL"),
    ("CC(C)=CCOc1cc(OCCCCCCCCNC(=N)N)cc2oc3cc(OCCCCCCCCNC(=N)N)ccc3c(=O)c12", "25 µg/mL"),
    ("CC(C)=CCOc1cc(OCCCCCCNC(=N)N)cc2oc3cc(OCCCCCCNC(=N)N)ccc3c(=O)c12", "0.78 µg/mL"),
    ("[H]/N=C(/N)NCCCOc1ccc2c(=O)c3c(OCC=C(C)CCC=C(C)C)cc(OCCCNC(=N)N)cc3oc2c1", "12.5 µg/mL"),
    ("O=c1c2ccc(O)cc2oc2cc(O)cc(O)c12", "> 50 µg/mL"),
    ("CC(C)=CCOc1cc(OCCCCNC(=N)N)cc2oc3cc(OCCCCNC(=N)N)ccc3c(=O)c12", "12.5 µg/mL"),
]

----------
assay: Plasma pharmacokinetic study; format: in vivo, CD-1 mice; conditions: male, CD-1, mouse, plasma; IP 20 mg/kg
PROPERTY LABEL: AUC(0-t) (ng·h/mL)

# SMILES CODE, OBSERVED RESULT
measured = [
    ("CC(C)=CCOc1cc(OCCCNC(=N)N)cc2oc3cc(OCCCNC(=N)N)ccc3c(=O)c12", 23900),
]

----------
system: S. aureus ATCC 29213; experiment: MIC, broth microdilution; type: cell-based; details: Staphylococcus aureus, ATCC29213, 24 h, 24-hour incubation, MHB; read-out: MIC90 S. aureus ATCC 29213
PROPERTY LABEL: MIC90 (µg/mL)

# SMILES CODE, RESULT UNITS, MODIFIER, OBSERVED RESULT
rows = [
    ("O=c1c2ccc(O)cc2oc2cc(O)cc(O)c12", "µg/mL", "=", 50),
    ("CCN(CC)CCCCCCOc1ccc2c(=O)c3c(OCC=C(C)C)cc(OCCCCCCN(CC)CC)cc3oc2c1", "µg/mL", "=", 1.56),
    ("CC(C)=CCOc1cc(OCCCN2CCSCC2)cc2oc3cc(OCCCN4CCSCC4)ccc3c(=O)c12", "µg/mL", ">", 50),
    ("CC(C)=CCOc1cc(OCCCCCCNC(=N)N)cc2oc3cc(OCCCCCCNC(=N)N)ccc3c(=O)c12", "µg/mL", "=", 0.098),
]
